tested on: LXRa homodimer (NR concentration 270 nM); test: PBM binding z-score (relative to random genomic background probes); higher = stronger binding; sequences stand for … in GC…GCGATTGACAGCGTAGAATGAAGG
Quick rule: PBM binding z-score of at least 0.1 means t, below that means f.

Solved cases (6 shown):
Ordered residues: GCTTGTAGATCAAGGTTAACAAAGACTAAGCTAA
Label: f

Ordered residues: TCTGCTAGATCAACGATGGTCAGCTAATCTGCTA
Label: f

Ordered residues: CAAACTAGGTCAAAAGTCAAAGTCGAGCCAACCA
Label: t

Ordered residues: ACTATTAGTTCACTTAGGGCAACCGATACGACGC
Label: t

Ordered residues: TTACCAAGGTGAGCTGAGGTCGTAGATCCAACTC
Label: f

Ordered residues: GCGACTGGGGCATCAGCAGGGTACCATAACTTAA
Label: f

Does the sequence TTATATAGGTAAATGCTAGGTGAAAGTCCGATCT have recorded PBM binding z-score that is 0.1 or more? t

How about this sequence: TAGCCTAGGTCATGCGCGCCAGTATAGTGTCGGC t

How about this sequence: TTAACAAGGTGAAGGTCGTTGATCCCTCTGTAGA f

How about this sequence: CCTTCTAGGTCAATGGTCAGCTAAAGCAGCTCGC t

How about this sequence: ACTAGCAGGCCAACGGTCACTCAAGATTAGTCCG f

How about this sequence: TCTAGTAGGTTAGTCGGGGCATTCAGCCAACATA t

----------
test system: THRa:RXRa (NR concentration 90 nM, RXRa partner concentration 90 nM); assay: PBM binding z-score (relative to random genomic background probes); higher = stronger binding; sequences stand for … in GC…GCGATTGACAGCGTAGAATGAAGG
The entries below are paired with their reported PBM binding z-score.
Please give the numeric answer without any surrounding text.

Solved entries (count: 8):
Ordered residues: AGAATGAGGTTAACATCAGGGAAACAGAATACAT
PBM binding z-score: 2.91
--
Ordered residues: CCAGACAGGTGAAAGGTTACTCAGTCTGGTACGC
PBM binding z-score: 1.72
--
Ordered residues: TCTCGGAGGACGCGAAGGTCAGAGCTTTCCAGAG
PBM binding z-score: 1.84
--
Ordered residues: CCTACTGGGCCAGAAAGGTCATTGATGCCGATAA
PBM binding z-score: 2.88
--
Ordered residues: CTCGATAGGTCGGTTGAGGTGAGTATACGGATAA
PBM binding z-score: 4.73
--
Ordered residues: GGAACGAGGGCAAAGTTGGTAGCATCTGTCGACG
PBM binding z-score: 1.09
--
Ordered residues: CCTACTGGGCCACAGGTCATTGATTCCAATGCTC
PBM binding z-score: 1.54
--
Ordered residues: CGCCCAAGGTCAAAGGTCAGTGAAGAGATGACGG
PBM binding z-score: 4.83

Look up PBM binding z-score with THRa:RXRa (NR concentration 90 nM, RXRa partner concentration 90 nM) for this sequence: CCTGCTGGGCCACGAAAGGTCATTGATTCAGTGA 3.87

How about this sequence: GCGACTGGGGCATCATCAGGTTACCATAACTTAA 2.31

How about this sequence: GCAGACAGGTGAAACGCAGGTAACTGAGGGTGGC 1.06

How about this sequence: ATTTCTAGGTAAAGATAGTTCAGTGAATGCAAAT 1.02
